target: thrombin (Homo sapiens, UniProt P00734); construct: consists of two polypeptide chains of 36 (light chain) and 259 amino acid; assay: Thrombin inhibition screen of crude macrocycle reactions (residual thrombin activity, fluorogenic substrate Z-Gly-Gly-Arg-AMC); assay type: biochemical; conditions: 10 µM macrocycle concentration; macrocycles containing acid 14; crude reaction; original screen
Numbered stars: 1 amine (or outer) side, 2 acyl side, 3 side chain; on linkers, the order of the positions; unused ones are H or OH. Bridge positions count the residues as written; N and C are the ends. Square brackets hold non-standard residues; d marks the D form. Peptide text beside a SMILES is read from it. * marks the point of attachment. 2Thenoyl(5-Cl) = O=C(c1ccc(Cl)s1)*; Cysteamide = C(CS[*:3])N[*:1]; Dap = NC[CH](N)C(=O)O; Mpa = O=C(O)CCS
observed_property: % thrombin activity, Original screen (%)
One number for each entry, in %.

Reference set (3 entries):
| compound | % thrombin activity, Original screen (%) |
| --- | --- |
| NC(=O)CCC1NC(=O)C2CC(NC(=O)c3ccc(Cl)s3)CN2C(=O)CCSSCCNC(=O)c2ccc(cc2)CNC1=O (stereo not drawn) | 94.5 |
| O=C1CCSSCCNC(=O)[C@@H](CNC(=O)c2ccc(Cl)s2)NC(=O)[C@@H](Cc2c[nH]c3ccccc23)NC(=O)C2(CC2)CN1 | 102.8 |
| CC1NC(=O)CCSSCCNC(=O)C2CCCN(C2)C(=O)C(CNC(=O)c2ccc(Cl)s2)NC1=O (stereo not drawn) | 97.7 |

Report % thrombin activity, Original screen for each item below.
1. NC(=O)CCC1NC(=O)C(CCCCNC(=O)c2ccc(Cl)s2)NC(=O)CCSSCCNC(=O)C2CCCN2C1=O (stereo not drawn) [X D1 Q B1] ([Mpa]K(2Thenoyl(5-Cl))QP-Cysteamide; disulfide 1-C; configuration not given here)
2. C[C@H]1NC(=O)CCSSCCNC(=O)c2ccc(cc2)CNC(=O)[C@@H]2C[C@H](NC(=O)c3ccc(Cl)s3)CN2C1=O
3. O=C(NCCCC[C@@H]1NC(=O)[C@H](Cc2c[nH]c3ccccc23)NC(=O)[C@H]2CCCN(C2)C(=O)CCSSCCNC1=O)c1ccc(Cl)s1 [X B4 W D1]

# output
[102.2, 110.0, 84.9]

Report % thrombin activity, Original screen for each item below.
1. CC(C)C1NC(=O)C2CCCN(C2)C(=O)C(NC(=O)c2ccc(Cl)s2)CSSCCNC(=O)CNC1=O (stereo not drawn)
2. CC(C)[C@H]1NC(=O)CCSSCCNC(=O)c2cccc(c2)CNC(=O)[C@@H](CNC(=O)c2ccc(Cl)s2)NC1=O
3. CC[C@H](C)[C@@H]1NC(=O)CCSSCCNC(=O)[C@H]2CCCN(C2)C(=O)[C@H](CCCCNC(=O)c2ccc(Cl)s2)NC1=O [X I D1 B4]
4. O=C1CCNC(=O)[C@H](CO)NC(=O)[C@H](CCCNC(=O)c2ccc(Cl)s2)NC(=O)CCSSCCN1 [X D2 S B2]
5. NC(=O)CCC1NC(=O)C2CCCN(C2)C(=O)C(CNC(=O)c2ccc(Cl)s2)NC(=O)CCSSCCNC1=O (stereo not drawn)
6. O=C1CCSSCCNC(=O)C2CC(NC(=O)c3ccc(Cl)s3)CN2C(=O)CCNC(=O)C(CO)N1 (stereo not drawn)

# output
[107.3, 103.4, 102.2, 105.4, 94.4, 96.6]

Report % thrombin activity, Original screen for each item below.
1. CC(C)C1NC(=O)C2CCCN2C(=O)C(CNC(=O)c2ccc(Cl)s2)NC(=O)CCSSCCNC1=O (stereo not drawn) [X D3 B1 v] ([Mpa][Dap](2Thenoyl(5-Cl))PV-Cysteamide; disulfide 1-C; configuration not given here)
2. O=C(NC[C@H]1NC(=O)[C@@H](CO)NC(=O)[C@H]2CCCN(C2)C(=O)CCSSCCNC1=O)c1ccc(Cl)s1
3. CC(C)C1NC(=O)C2(CCN(C(=O)c3ccc(Cl)s3)CC2)NC(=O)CCSSCCNC(=O)C2CCCN(C2)C1=O (stereo not drawn)
4. O=C(NCCCC[C@@H]1NC(=O)[C@@H]2CCCN2C(=O)CCSSCCNC(=O)[C@@H](Cc2ccc(O)cc2)NC1=O)c1ccc(Cl)s1 [X B1 D1 y] ([Mpa]PK(2Thenoyl(5-Cl))[dY]-Cysteamide; disulfide 1-C)
5. O=C1CCSSCCNC(=O)[C@H](Cc2c[nH]c3ccccc23)NC(=O)[C@H](CCCNC(=O)c2ccc(Cl)s2)NC(=O)C2(CC2)CN1 [X B6 D2 W]

# output
1. 92.1
2. 104.5
3. 81.5
4. 103.7
5. 87.3

# input Supply reported % thrombin activity, Original screen belonging to this compound: O=C1CCSSCCNC(=O)C(Cc2c[nH]c3ccccc23)NC(=O)C2CC(NC(=O)c3ccc(Cl)s3)CN2C(=O)CCN1 (stereo not drawn)
# output 95.8

Values compiled from paper PMC9250534.
